# TARGET DESC: the molecule itself
# PROCEDURE SUMMARY: mass photometry

# PROTEIN, stoichiometry N
records = [
    ("His-NADK2^K304Q (enzyme, human, UniProt Q4G0N4 61-442, looked up) RADGGFRPSRVVVVAKTTRYEFEQQRYRYAELSEEDLKQLLALKGSSYSGLLERHHIHTKNVEHIIDSLRNEGIEVRLVKRREYDEETVRWADAVIAAGGDGTMLLAASKVLDRLKPVIGVNTDPERSEGHLCLPVRYTHSFPEALQKFYRGEFRWLWRQRIRLYLEGTGINPVPVDLHEQQLSLNQHNRALNIERAHDERSEASGPQLLPVRALNEVFIGESLSSRASYYEISVDDGPWEKQQSSGLNLCTGTGSKAWSFNINRVATQAVEDVLNIAKRQGNLSLPLNRELVEKVTNEYNESLLYSPEEPKILFSIREPIANRVFSSSRQRCFSSKVCVRSRCWDACMVVDGGTSFEFNDGAIASMMINKEDELRTVLLEQ", 2),
]
